System: TNF
Assay: In Vivo Study: Inhibition of LPS-Induced Serum TNF
Parameters: species or system Mice (C57BI/6J males)
Details: Mus musculus, 1.5 h; 25 mg/kg orally or i.p. one hour before LPS (50 μg i.p.); bled 90 min after LPS; serum TNF by ELISA
Description: In addition to the in vitro test described above, the following in vivo test was also performed on several of the compounds of the present invention. 2. In Vivo Study: Inhibition of LPS-Induced Serum TNF 1) Mice (C57BI/6J males, 6-8 weeks of age) are dosed with the indicated compound (dissolved in CMC suspension vehicle; compounds are given orally or i.p. one hour before LPS challenge). […] 4) Sera are analyzed for TNF content by ELISA as described in J. Immunol.
inhibition in vivo at 25 mg/kg below 50% gives Not satisfied; inhibition in vivo at 25 mg/kg at or above it gives Satisfied.

Query :: Hi team, for CN1CC=C(C2(Cc3ccccc3)c3ccccc3CCc3ccccc32)CC1 [IK] , is the recorded inhibition in vivo at 25 mg/kg at or above 50%?
Result :: Not satisfied

Query :: Hi team, for CC1(C2=CC[N+](C)(C)CC2)c2ccccc2CCc2ccccc21 [IT] , is the recorded inhibition in vivo at 25 mg/kg at or above 50%?
Result :: Not satisfied

Query :: Hi team, for C=CCC1(C2=CCN(C(C)C)CC2)c2ccccc2CCc2ccccc21 [Compound IP] , is the recorded inhibition in vivo at 25 mg/kg at or above 50%?
Result :: Not satisfied

Query :: Hi team, for C=CCC1(C2=CCN(Cc3ccccc3)CC2)c2ccccc2CCc2ccccc21 [Compound IN] , is the recorded inhibition in vivo at 25 mg/kg at or above 50%?
Result :: Not satisfied

Query :: Hi team, for CN1CC=C(C2c3ccccc3CCc3ccccc32)CC1 [Compound IL] , is the recorded inhibition in vivo at 25 mg/kg at or above 50%?
Result :: Satisfied

Query :: Hi team, for C=CCC1(C2=CC[N+](C)(C)CC2)c2ccccc2CCc2ccccc21.[I-] [Compound IM] , is the recorded inhibition in vivo at 25 mg/kg at or above 50%?
Result :: Not satisfied

Query :: Hi team, for CN1CC=C(C2(C)c3ccccc3CCc3ccccc32)CC1 [IS] , is the recorded inhibition in vivo at 25 mg/kg at or above 50%?
Result :: Not satisfied

Query :: Hi team, for CC(C)=CCC1(C2=CCN(C)CC2)c2ccccc2CCc2ccccc21 [IQ] , is the recorded inhibition in vivo at 25 mg/kg at or above 50%?
Result :: Not satisfied

Query :: Hi team, for CN1CCC(C2c3ccccc3CCc3ccccc32)CC1 [Compound K, reference compound] , is the recorded inhibition in vivo at 25 mg/kg at or above 50%?
Result :: Satisfied

Query :: Hi team, for C=CCC1(C2=CCN(C)CC2)c2ccccc2C=Cc2ccccc21 [IH] , is the recorded inhibition in vivo at 25 mg/kg at or above 50%?
Result :: Not satisfied

Query :: Hi team, for C=CCC1(C2=CCN(C)CC2)c2ccccc2CCc2cccnc21 (stereo not shown) [IX] , is the recorded inhibition in vivo at 25 mg/kg at or above 50%?
Result :: Satisfied

Query :: Hi team, for C=CCC1(C2=CCN(C)CC2)c2ccccc2CCc2ccccc21 [Compound IB] , is the recorded inhibition in vivo at 25 mg/kg at or above 50%?
Result :: Satisfied

###

Test system: LPS/Galactosamine-Induced Lethality
Experiment: In Vivo Study: Inhibition of LPS/Galactosamine-Induced Lethality
Set-up: species or system Mice (C57BI/6J males)
Conditions: 25 mg/kg orally or i.p. one hour before LPS (100 ng) and d-galactosamine (8 mg) i.p.; survival at 24 hours
Description: This test procedure is a standard test used to determine activity against septic shock. 3. In Vivo Study: Inhibition of LPS/Galactosamine-Induced Lethality Mice (C57BI/6J males, 6-8 weeks of age) are dosed with the indicated compound (dissolved in CMC suspension vehicle; compounds are given orally or i.p. one hour before challenge with LPS and d-galactosamine). […] Survival is determined 24 hours after challenge. […]
parameter measured: # DEAD/TOTAL AT 25 MG/KG

Query :: I'd like to know its # DEAD/TOTAL AT 25 MG/KG. The molecule in question is C=CCC1(C2=CCN(Cc3ccccc3)CC2)c2ccccc2CCc2ccccc21
Result :: 10/10

Query :: I'd like to know its # DEAD/TOTAL AT 25 MG/KG. The molecule in question is CCCC1(C2=CCN(C)CC2)c2ccccc2CCc2ccccc21
Result :: 5/8

Query :: I'd like to know its # DEAD/TOTAL AT 25 MG/KG. The molecule in question is CC(C)=CCC1(C2=CCN(C)CC2)c2ccccc2CCc2ccccc21
Result :: 4/10

Query :: I'd like to know its # DEAD/TOTAL AT 25 MG/KG. The molecule in question is C=CCC1(C2=CCNCC2)c2ccccc2CCc2ccccc21
Result :: 7/8

Query :: I'd like to know its # DEAD/TOTAL AT 25 MG/KG. The molecule in question is C=CCC1(C2=CCN(C)CC2)c2ccccc2CCc2ccccc21
Result :: 0/8

Query :: I'd like to know its # DEAD/TOTAL AT 25 MG/KG. The molecule in question is C=CCC1(C2=CCN(C(C)C)CC2)c2ccccc2CCc2ccccc21
Result :: 6/10

Query :: I'd like to know its # DEAD/TOTAL AT 25 MG/KG. The molecule in question is C=CCC1(C2=CCN(C(=O)OCC)CC2)c2ccccc2CCc2ccccc21
Result :: 4/8

Query :: I'd like to know its # DEAD/TOTAL AT 25 MG/KG. The molecule in question is CN1CC=C(C2(Cc3ccccc3)c3ccccc3CCc3ccccc32)CC1
Result :: 5/9

Query :: I'd like to know its # DEAD/TOTAL AT 25 MG/KG. The molecule in question is C=CCC1(C2=CCN(C)CC2)c2ccccc2C=Cc2ccccc21
Result :: 4/9

Query :: I'd like to know its # DEAD/TOTAL AT 25 MG/KG. The molecule in question is C=CCC1(C2=CCN(C)CC2)c2ccccc2CCc2cccnc21 (stereo not shown)
Result :: 9/9

Query :: I'd like to know its # DEAD/TOTAL AT 25 MG/KG. The molecule in question is C=CCC1(C2=CC[N+](C)(C)CC2)c2ccccc2CCc2ccccc21.[I-]
Result :: 2/11

Query :: I'd like to know its # DEAD/TOTAL AT 25 MG/KG. The molecule in question is CN1CCC(C2c3ccccc3CCc3ccccc32)CC1 [Compound K, reference compound]
Result :: 0/10

Query :: I'd like to know its # DEAD/TOTAL AT 25 MG/KG. The molecule in question is CN1CC=C(C2c3ccccc3CCc3ccccc32)CC1
Result :: 1/9
